system: morningglory (Ipomoea coccinea); assay: Test C greenhouse herbicide test, pre- and postemergence; format: in vivo; conditions: postemergence, 62 g ai/ha; scale 0 to 100, 0 no effect, 100 complete control
Reported Metric: Morningglory plant response rating
Numbers only.

Your task in this section: give Morningglory plant response rating for each listed record.
1. Cc1ccc2ccc(C)c(-c3c(O)c(C)nn(C)c3=O)c2c1
2. Cc1ccc(-c2c(O)c(Br)nn(C)c2=O)c2ccccc12
3. C#CCOC(=O)Oc1c(C)nn(C)c(=O)c1-c1c(C)sc2ccc(C)cc12
4. Cc1cc(C)c2sc(C)c(-c3c(OC(=O)OC(C)C)c(C)nn(C)c3=O)c2c1
5. COc1nn(C)c(=O)c(-c2c(C)sc3ccc(Cl)cc23)c1O

[98, 100, 98, 95, 100]

Your task in this section: give Morningglory plant response rating for each listed record.
1. Cc1ccc2ccccc2c1-c1c(O)c(C)nn(C)c1=O
2. CC(=O)Oc1c(C#N)nn(C)c(=O)c1-c1c(C)ccc2ccccc12
3. Cc1nn(C)c(=O)c(-c2c(C)sc3ccccc23)c1O
4. COc1ccc2ccccc2c1-c1c(O)c(C)nn(C)c1=O

1: 100; 2: 100; 3: 85; 4: 65

Your task in this section: give Morningglory plant response rating for each listed record.
1. Cc1ccc2ccccc2c1-c1c(O)cnn(C)c1=O
2. Cc1cc(C)c2sc(C)c(-c3c(OC(=O)OCCCl)c(C)nn(C)c3=O)c2c1

[50, 98]

###

Assign Plant response rating, Oilseed Rape to each entry below.
tested on: oilseed rape (Brassica napus); experiment: Test D controlled growth environment herbicide test, pre- and postemergence; type: in vivo; conditions: postemergence, 62 g ai/ha; scale 0 to 100, 0 no effect, 100 complete control
One number for each entry.

Your task in this section: give Plant response rating, Oilseed Rape for each listed record.
1. CCOC(=O)Oc1c(C)nn(C)c(=O)c1-c1c(C)sc2ccc(C)cc12
2. CC(=O)Oc1c(C)nn(C)c(=O)c1-c1ccc(F)c2ccccc12
3. Cc1ccc2sc(C)c(-c3c(O)c(C)nn(C)c3=O)c2c1
4. Cc1nn(C)c(=O)c(-c2c(C)sc3ccc(Cl)cc23)c1O
5. CCC(=O)Oc1c(C)nn(C)c(=O)c1-c1c(C)sc2c(C)cc(C)cc12

1: 45; 2: 5; 3: 15; 4: 75; 5: 65

Your task in this section: give Plant response rating, Oilseed Rape for each listed record.
1. COc1nn(C)c(=O)c(-c2c(C)ccc3ccccc23)c1OC(=O)OC(C)C
2. CC(=O)Oc1c(C)nn(C)c(=O)c1-c1c(C)cc(C)c2ccccc12

[85, 85]

###

tested on: wild poinsettia (Euphorbia heterophylla); test: Test E greenhouse herbicide test, pre- and postemergence; assay type: in vivo; conditions: 62 g ai/ha, Postemergence; scale 0 to 100 (0 no effect, 100 complete control)
Assign Plant response rating, Poinsettia, Wild to each entry below.
Give bare numbers.

Below: 3 compounds and their reported Plant response rating, Poinsettia, Wild.
Cc1ccc2sc(C)c(-c3c(O)c(C)nn(C)c3=O)c2c1 [Compound 1] :: 15
COc1nn(C)c(=O)c(-c2c(C)sc3ccc(Cl)cc23)c1O [Compound 100] :: 0
CSCC(=O)Oc1c(C)nn(C)c(=O)c1-c1cccc2ccccc12 [Compound 171] :: 30

Your task in this section: give Plant response rating, Poinsettia, Wild for each listed record.
1. CC(=O)Oc1c(C)nn(C)c(=O)c1-c1ccc(F)c2ccccc12 [Compound 90]
2. CC(=O)Oc1c(C)nn(C)c(=O)c1-c1c(C)sc2ccc(C)cc12 [Compound 25]

1. 50
2. 30

###

tested on: windgrass (Apera spica-venti); assay: Test D controlled growth environment herbicide test, pre- and postemergence; assay type: in vivo; conditions: Postemergence, 250 g ai/ha; scale 0 to 100 (0 no effect, 100 complete control)
Assign Plant response rating, Windgrass to each entry below.
Give bare numbers.

Below: 6 compounds and their reported Plant response rating, Windgrass.
Cc1ccc(-c2c(O)c(Br)nn(C)c2=O)c2ccccc12 [Compound 52] :: 5
CCC(=O)Oc1c(C)nn(C)c(=O)c1-c1c(C)sc2ccc(C)cc12 [Compound 42] :: 98
COC(=O)Oc1c(C)nn(C)c(=O)c1-c1c(C)sc2c(C)cc(C)cc12 [Compound 81] :: 95
Cc1ccc2ccccc2c1-c1c(O)c(C)nn(C)c1=O [Compound 59] :: 85
CC(=O)Oc1c(C)nn(C)c(=O)c1-c1ccc(F)c2ccccc12 [Compound 90] :: 90
CCOC(=O)Oc1c(C)nn(C)c(=O)c1-c1c(C)sc2c(C)cc(C)cc12 [Compound 83] :: 95

Let us move to another entry and its Plant response rating, Windgrass.
What measured Plant response rating, Windgrass goes with COc1nn(C)c(=O)c(-c2c(C)ccc3ccccc23)c1OC(=O)OC(C)C [Compound 36] ?
75

###

test system: oilseed rape (Brassica napus); assay: Test C greenhouse herbicide test, pre- and postemergence; assay type: in vivo; details: postemergence, 125 g ai/ha; scale 0 to 100, 0 no effect, 100 complete control
Reported Metric: Oilseed Rape plant response rating
Answers are plain numbers.

COC(=O)Oc1c(C)nn(C)c(=O)c1-c1c([N+](=O)[O-])ccc2ccccc12 [Compound 162] :: 0
CSCC(=O)Oc1c(C)nn(C)c(=O)c1-c1cccc2ccccc12 [Compound 171] :: 0
CC(=O)Oc1c(C)nn(C)c(=O)c1-c1c(C)cc(C)c2ccccc12 [Compound 153] :: 90

Your task in this section: give Oilseed Rape plant response rating for each listed record.
1. COc1nn(C)c(=O)c(-c2c(C)ccc3ccccc23)c1OC(C)=O [Compound 138]
2. Cc1nn(C)c(=O)c(-c2cccc3ccc(C#N)cc23)c1O [Compound 127]

1. 98
2. 25

###

test system: sandbur (southem sandbur, Cenchrus echinatus); assay: Test E greenhouse herbicide test, pre- and postemergence; format: in vivo; conditions: Preemergence, 31 g ai/ha; scale 0 to 100, 0 no effect, 100 complete control
Record Met whenever Plant response rating, Sandbur is at 40 or higher; record Not met when lower.

Sample answers from the record:
CC(=O)Oc1c(C)nn(C)c(=O)c1-c1c(C)cc(C)c2ccccc12 :: Met
CCC(=O)Oc1c(C)nn(C)c(=O)c1-c1c(C)sc2c(C)cc(C)cc12 :: Not met
CC(=O)Oc1c(C)nn(C)c(=O)c1-c1c(C)sc2ccc(C)cc12 :: Not met

In the following, a different molecule is considered.
Assess whether reported Plant response rating, Sandbur for CCOC(=O)Oc1c(C)nn(C)c(=O)c1-c1c(CC)ccc2ccccc12 sits at 40 or higher.
Not met

###

system: nutsedge, yellow (yellow nutsedge, Cyperus esculentus); test: Test C greenhouse herbicide test, pre- and postemergence; assay type: in vivo; details: postemergence, 125 g ai/ha; scale 0 to 100, 0 no effect, 100 complete control
Reported Metric: Nutsedge, Yellow plant response rating
Answers are plain numbers.

Below: 4 compounds and their reported Nutsedge, Yellow plant response rating.
COc1nn(C)c(=O)c(-c2c(C)ccc3ccccc23)c1OC(C)=O :: 75
Cc1ccc2ccccc2c1-c1c(OC(=O)N2CCOCC2)c(Br)nn(C)c1=O :: 5
COC(=O)Oc1cnn(C)c(=O)c1-c1c(C)ccc2ccccc12 :: 35
COC(=O)Oc1c(C)nn(C)c(=O)c1-c1c([N+](=O)[O-])ccc2ccccc12 :: 30

Let us move to another entry and its Nutsedge, Yellow plant response rating.
What measured Nutsedge, Yellow plant response rating goes with CSCC(=O)Oc1c(C)nn(C)c(=O)c1-c1cccc2ccccc12 ?
75

###

Assign Plant response rating, Russian Thistle to each entry below.
test system: Russian thistle (Salsola kali); assay: Test D controlled growth environment herbicide test, pre- and postemergence; type: in vivo; settings: Preemergence, 250 g ai/ha; scale 0 to 100 (0 no effect, 100 complete control)
Numbers only.

Below: 3 compounds and their reported Plant response rating, Russian Thistle.
Cc1cc(C)c2sc(C)c(-c3c(OC(=O)OCCCl)c(C)nn(C)c3=O)c2c1 [Compound 85] :: 75
CCC(=O)Oc1c(C)nn(C)c(=O)c1-c1c(C)sc2ccc(Cl)cc12 [Compound 109] :: 50
COC(=O)Oc1c(C)nn(C)c(=O)c1-c1c(C)sc2c(C)cc(C)cc12 [Compound 81] :: 35

Your task in this section: give Plant response rating, Russian Thistle for each listed record.
1. CCOC(=O)Oc1c(C)nn(C)c(=O)c1-c1c(C)sc2c(C)cc(C)cc12 [Compound 83]
2. CC(=O)Oc1c(C)nn(C)c(=O)c1-c1ccc(F)c2ccccc12 [Compound 90]
3. CCC(=O)Oc1c(C)nn(C)c(=O)c1-c1c(C)sc2ccc(C)cc12 [Compound 42]
4. CC(=O)Oc1c(C)nn(C)c(=O)c1-c1c(C)sc2c(C)cc(C)cc12 [Compound 27]

1. 0
2. 60
3. 75
4. 75

Your task in this section: give Plant response rating, Russian Thistle for each listed record.
1. C#CCOC(=O)Oc1c(C)nn(C)c(=O)c1-c1c(C)sc2ccc(C)cc12 [Compound 87]
2. CCOC(=O)Oc1c(C)nn(C)c(=O)c1-c1c(C)sc2ccc(C)cc12 [Compound 82]

1: 100; 2: 65
